The reported measurements were obtained from paper PMC5976465.

- test-target: HSP90β (Homo sapiens, UniProt P08238)
- Construct: recombinant HSP90β expressed in BL21(DE3) from pET52b
- Sequence (P08238 2-724): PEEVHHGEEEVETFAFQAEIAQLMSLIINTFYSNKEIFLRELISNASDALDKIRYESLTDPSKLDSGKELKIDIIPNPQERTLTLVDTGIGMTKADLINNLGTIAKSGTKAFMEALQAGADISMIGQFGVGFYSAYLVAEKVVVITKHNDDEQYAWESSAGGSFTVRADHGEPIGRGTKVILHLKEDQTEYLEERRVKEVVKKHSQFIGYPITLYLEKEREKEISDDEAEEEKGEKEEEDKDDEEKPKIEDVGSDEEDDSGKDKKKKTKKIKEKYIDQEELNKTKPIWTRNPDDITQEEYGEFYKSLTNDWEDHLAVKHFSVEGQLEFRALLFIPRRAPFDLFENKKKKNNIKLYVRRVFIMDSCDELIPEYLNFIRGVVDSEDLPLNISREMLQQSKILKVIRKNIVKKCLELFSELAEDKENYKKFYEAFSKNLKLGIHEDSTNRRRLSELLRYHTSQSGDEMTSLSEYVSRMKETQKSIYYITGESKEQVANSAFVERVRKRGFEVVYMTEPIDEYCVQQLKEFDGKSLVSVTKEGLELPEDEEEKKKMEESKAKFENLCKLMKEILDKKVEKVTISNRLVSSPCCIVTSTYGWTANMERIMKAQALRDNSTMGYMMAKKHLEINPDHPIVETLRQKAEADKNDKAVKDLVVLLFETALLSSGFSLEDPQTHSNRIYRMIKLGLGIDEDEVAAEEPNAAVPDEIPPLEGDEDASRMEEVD
- assay-method-text: colorimetric ATPase assay with recombinant protein; also MANT-ADP binding and CDC37 pulldown
reported-metric: IC50 (µM)
State just the number; it will be interpreted in µM.

Prompt: Find the recorded IC50 belonging to CC(C)[C@]12O[C@H]1[C@@H]1O[C@]13[C@]1(O[C@H]1C[C@H]1C4=C(CC[C@@]13C)C(=O)OC4)[C@@H]2O [TL, Triptolide] and report it.
Completion: 29.9
